Test system: A498 renal
Assay method text: NCI-60 one-dose screen, 48 h (100 = growth as untreated, 0 = no growth, -100 = all killed)
Test context: 10 µM unless noted
Compounds without any hit were thinned out: in the full panel of roughly 83,000, 20% have a hit. The source made the active and inactive calls. How the source made its calls: active means growth percent below 10; inactive means the rest.
Value type: growth

As a guide, the following entries are already answered.
Compound	Value type	Measured value
CC/C=C\C[C@H]1CC=C2C(=O)C=C[C@@H]2CC=CCCCC(=O)O[C@@H](CCCCC)CC=C2C(=O)C=C[C@@H]2CC=CCCCC(=O)O[C@@H](CCCCC)CC=C2C(=O)C=C[C@@H]2CC=CCCCC(=O)O[C@@H](CCCCC)CC=C2C(=O)C=C[C@@H]2CC=CCCCC(=O)O1	growth	73.1% [7.9 µM] (inactive)
OCC12CCCC(CO)(COC1)C2O (stereo unspecified)	growth	97.9% (inactive)
NCCn1cc(-c2nc(-c3c[nH]c4ncccc34)cs2)c2ccccc21	growth	88.2% (inactive)

Dear reader, for each entry below, please note its growth.
1. N#C/C(=C\c1ccc(-c2cccc(C(F)(F)F)c2)o1)c1nc(-c2ccco2)cs1
2. Cn1cc(-c2csc(-c3cn(CCNC(=O)OC(C)(C)C)c4ccccc34)n2)c2cccnc21
3. COc1ccc2nc(-c3cc(-c4cc(OC)c(OC)c(OC)c4)n[nH]3)[nH]c2c1
4. N#CC1=C(N)Oc2ccc3ccccc3c2C1c1ccccc1Cl (stereo unspecified)
5. CC(C)=CCC/C(C)=C/CC/C(C)=C/CSC[C@H](NC(=O)CCCCCN1CCN(C)CC1)C(=O)NC1CCCCCC1

Key:
1. 104% (inactive)
2. 82.4% (inactive)
3. 15.5% (inactive)
4. 40.1% (inactive)
5. 77.3% (inactive)

Provide reported growth for each item, in the same order as listed.
1. COc1cc2ncnc(Nc3ccc(Oc4ccnc(C)c4)c(C)c3)c2cc1NC(=O)CC1CCSS1 (stereo unspecified)
2. Cc1cc(N=O)cc(C(C)(C)C)c1O
3. COC(=O)[C@@H]1[C@H]2C[C@H]3c4[nH]c5cc(OC)ccc5c4CCN3C[C@@H]2C[C@H](OC(=O)/C=C/c2ccnc(OC)c2)[C@H]1OC
4. COc1cccc(-c2nn(-c3ccccc3)cc2-c2ccnc(NCCCNS(=O)(=O)c3ccc(Cl)cc3)c2)c1
5. COc1ccc(-c2nc3ccccn3c2-c2nc3ccc(Cl)cc3[nH]2)cc1
6. O=c1[nH]c(=S)[nH]c2nc[nH]c12
7. CCCCC[C@H]1CC=C2C(=O)C(Cl)=C[C@@H]2CC=CCCCC(=O)O[C@@H](CCCCC)CC=C2C(=O)C(Cl)=C[C@@H]2CC=CCCCC(=O)O[C@@H](CCCCC)CC=C2C(=O)C(Cl)=C[C@@H]2CC=CCCCC(=O)O1

Key:
1: 66.8% (inactive); 2: 74.3% (inactive); 3: 79.4% (inactive); 4: 42.3% (inactive); 5: 91.9% (inactive); 6: 93.4% (inactive); 7: 106% [8 µM] (inactive)

Exercise: Query growth for "Cc1nc([P+](c2ccccc2)(c2ccccc2)c2ccccc2)c(Sc2sc(-c3ccccc3)nc2[P+](c2ccccc2)(c2ccccc2)c2ccccc2)o1"
Key: -9.69% (active)

* * *

System: TK-10 renal
Assay method text: NCI-60 one-dose screen, 48 h
Test context: 10 µM unless noted
Compounds without any hit were thinned out: in the full panel of roughly 83,000, 20% have a hit. Active and inactive are the calls of the source. The calls were made as follows: active = growth percent below 10; inactive = the rest.
Respond only with the outcome that fits, drawn from 1 = active, -1 = inactive

// known answers, use as guide
Compound	Target system	Category
Fc1ccc(Nc2ccc3c(OCCCN4CCOCC4)cccc3n2)cc1F	TK-10 renal	-1
O=C(N/N=C\c1c(O)ccc2ccccc12)C1CC1	TK-10 renal	-1
Fc1ccc(Nc2nnc(-c3ccc(Cl)cc3)o2)cc1	TK-10 renal	-1
O=C1CCCC=CC[C@H]2C=C(Cl)C(=O)C2=CC[C@H](CCCCC(F)(F)F)OC(=O)CCCC=CC[C@H]2C=C(Cl)C(=O)C2=CC[C@H](CCCCC(F)(F)F)OC(=O)CCCC=CC[C@H]2C=C(Cl)C(=O)C2=CC[C@H](CCCCC(F)(F)F)O1	TK-10 renal	-1
COc1ccc(-c2nc3ccccn3c2-c2nc3ccc(Cl)cc3[nH]2)cc1	TK-10 renal	-1
CN(C)c1ccc(N=C2C=CC(=O)C=C2)cc1	TK-10 renal	-1

Exercise: Lab log entry: "CCN1CCN(C(=O)[C@]23CC[C@@H](C)[C@H](C)[C@H]2C2=CC[C@@H]4[C@@]5(C)C/C(=C/c6cccc(OC)c6OC)C(=O)C(C)(C)[C@@H]5CC[C@@]4(C)[C@]2(C)CC3)CC1" — outcome as called in the assay?
Key: -1

Exercise: Field: outcome | Entry: "COc1ccc(-c2nc3ncccn3c2-c2nc3ccc(Br)cc3[nH]2)cc1"
Key: -1

Exercise: What call does the record list for "CSc1ccc(N(C)c2nc(C)nc3c2CCC3)cc1" ?
Key: -1

Exercise: Query: recorded result category for "CN(C)CCCCC(C(=O)CBr)(c1ccccc1)c1ccccc1" in this test
Key: 1

Exercise: Tell me the recorded outcome of this test for "C=C(C)[C@@H]1CC[C@]2(C)[C@H](CC[C@@H]3[C@H]4[C@H]5OC[C@@]4(CCC5(C)C)CC[C@]32C)[C@@]1(C)CCCN" .
Key: -1

Exercise: Which result was noted for this compound in the test: "N#C/C(=C\c1ccc(-c2ccc(Cl)cc2)o1)c1nc(-c2ccco2)cs1"
Key: -1

Exercise: What is the recorded call for this compound in the test? "O=C(N/N=C/c1ccccc1SSc1ccccc1/C=N/NC(=O)c1ccccc1)c1ccccc1"
Key: -1

Exercise: // outcome(item) with item = N#CC1=C(N)Oc2c(sc3c(F)cccc23)C1c1ccc(Cl)cc1 (stereo not drawn)
Key: -1

Exercise: Short answer needed: outcome of this test for "CC(=O)O[C@H]1CC[C@@]2(C)C(=CC[C@@H]3[C@@H]2CC[C@]2(C)C(=O)N(O)C(=O)C[C@@H]32)C1" ?
Key: -1

Exercise: State the result this test recorded for "Cn1cc(-c2csc(-c3cn(CCNC(=O)OC(C)(C)C)c4ccc(F)cc34)n2)c2cccnc21" .
Key: -1

Exercise: Which outcome did this test record for the compound "COc1cc2c(cc1-c1c(C)noc1C)ncc1nc(C3CCC(F)(F)CC3)n([C@@H](C)COC(F)F)c12" ?
Key: -1

Exercise: Record lookup: outcome of this test for "O=C1c2cc3c(cc2-c2c1c1ccc(Cl)cc1c(=O)n2C[C@H](O)[C@@H](O)[C@H](O)CO)OCO3" ?
Key: 1

Data provenance: PubChem BioAssay (NCI)
